Measured values drawn from PubChem BioAssay AID179 for this set.

So I've got a bunch of compounds here, and I need their pIC50 values.
system: CEM cells HIV-1 protection, formazan growth assay; experiment: NCI AIDS Antiviral Assay; settings: measured here: growth of uninfected CEM cells
pIC50 field: float, defined as -log10 of concentration (mol/L).

Which measured pIC50 belongs to `CNCCCC1c2ccccc2C=Cc2ccccc21` , tested on CEM cells HIV-1 protection, formazan growth assay?
4.43

Enter reported pIC50 observed with CEM cells HIV-1 protection, formazan growth assay for CCCCNC(C)(C)C(SSSC(c1cccs1)C(C)(C)NCCCC)c1cccs1 (stereo not given)
4.70

Query pIC50 on CEM cells HIV-1 protection, formazan growth assay for `CC(C)c1ccc(C(c2c(O)c3ccccc3oc2=O)c2c(O)c3ccccc3oc2=O)cc1`
4.52

CEM cells HIV-1 protection, formazan growth assay / pIC50 / `S=c1sc2ccccc2n1CCSSCCn1c(=S)sc2ccccc21` : value?
3.72

====

Provide the recorded log10(IC50) for the entries that follow.
tested on: CEM cells HIV-1 protection, formazan growth assay; assay: NCI AIDS Antiviral Assay; conditions: measured here: growth of uninfected CEM cells
// units: µM (pre-log); metric: IC50; scale: log10

Which log10(IC50) is reported for this molecule? O=C(c1ccccc1)C1(C(=O)c2ccccc2)/C(=N\O)C2CCC1C2 (configuration not stated)
1.32

What log10(IC50) value was documented for this molecule, `COc1cc2c(c3c1C(=O)[C@H](C)[C@@H](C)O3)C=CC(C)(C)O2` ?
1.70

Tell me the measured log10(IC50) of CCC1(CCC#N)CCc2[nH]c3ccccc3c2C1=O (configuration not stated) , please.
2.24

# get_value(readout='log10(IC50)', item= Fc1sc2c(c1F)C1CCC2C1 (configuration not stated) )
2.06

// query log10(IC50) value for entry O=S1(=O)c2ccccc2NC(=S)CC1c1ccccc1 (configuration not stated)
2.11

Data request, read-out log10(IC50), for `c1ccc(Nc2nnc(CSc3nc(-c4ccccc4)c(-c4ccccc4)[nH]3)s2)cc1`
1.86

Any idea what log10(IC50) was measured for `CCOc1ccccc1-c1nc2c(s1)C(=O)c1ccccc1C2=O` ?
1.51

Given the entry COC1/C=C/OC2(C)Oc3c(C)c(O)c4c(O)c(c(/C=N\N(C)C56CC7CC(CC(C7)C5)C6)c(O)c4c3C2=O)NC(=O)C(C)=C/C=C/C(C)C(O)C(C)C(O)C(C)C(OC(C)=O)C1C (configuration not stated) , report its measured log10(IC50).
0.87

Can you look up the measured log10(IC50) of `COc1ccc2c(=O)c(-c3ccccc3)c(C)oc2c1` for me?
1.88

Find the recorded log10(IC50) belonging to `O=C1c2c(O)cccc2C(C(=O)CCCCCC(=O)C2c3cccc(O)c3C(=O)c3c(O)cccc32)c2cccc(O)c21` and report it.
0.79

Look up log10(IC50) for this molecule: Cc1cccc(C2NC(=O)N3C(c4cccc(C)c4)NC(=O)N23)c1 (configuration not stated)
1.58

For the molecule shown here, `O=C(O)CCCCCCCCCc1ccccc1` , give the reported log10(IC50).
2.03

I have this molecule here, `CN(C)CCc1ccnc2nc(-c3ccc4ccccc4c3)cn12` , and I need its recorded log10(IC50).
1.51

====

Test system: CEM cells HIV-1 protection, formazan growth assay
Test: NCI AIDS Antiviral Assay
Description: The ability of compounds to protect human CEM cells from HIV-1 infection is measured as a screen for new compounds capable of inhibiting the HIV virus. Five concentrations of drug were tested on uninfected and infected cells and cell growth was measured using a soluble formazan assay. […] Compounds that provided at least 50% protection were retested. Compounds that provided at least 50% protection on retest were listed as moderately active. […]
pEC50: −log10 of the molar value. Where a SMILES comes first, the peptide text is derived from it.
Kindly state pEC50 for each of the entries shown.

I'd like to know its pEC50. The molecule in question is S=C1CC(c2ccccc2)Sc2cc(Cl)ccc2N1 (configuration not stated)
< 3.70

Consider the molecule `O=C1OC(c2ccccc2)=N/C1=C\c1ccco1` and give its measured pEC50.
< 4.12

Fill blank: measured pEC50 of the molecule `O=C/C(=C1/C=Cc2cc([N+](=O)[O-])ccc2S1)c1ccccc1` is ____.
< 3.70

// pEC50 lookup, key: `Cc1ccccc1Nc1cn(COCc2ccccc2)c(=O)[nH]c1=O`
< 3.70

Endpoint output: pEC50 of `COC(=O)[C@H](C)NC(=O)[C@H](CSC)N1C(=O)N[C@@H](C(C)C)C1=O` . Value?
< 3.70

Find the recorded pEC50 belonging to `CSc1ccc(/C=C/c2ccnc3ccccc23)cc1` and report it.
< 4.87

// pEC50 lookup, key: `CCOC(=O)/C(=C\c1cccc(OC)c1)C(C)=O`
< 3.28

Fill blank: measured pEC50 of the molecule `CNC(=S)/C(C#N)=C(\N)N1CCCC1` is ____.
< 3.70

I have this molecule here, `Nc1[nH]c(=O)[nH]c(=O)c1N=O` , and I need its recorded pEC50.
< 3.70

Can you share its pEC50? I mean this molecule: `CC(=O)NNc1nc(C)c(C(=O)NNC(=O)C(=O)Nc2c([N+](=O)[O-])ccc(C)c2C)s1`
< 3.68

Record request: pEC50 value, item CC(=O)OC1CC2(C)C(OC(C)=O)CC1C2(C)C (configuration not stated)
< 3.70

# input molecule: CCC(C)C(NC(=O)C(CC(C)C)NC(=O)CNC(=O)C(CC(N)=O)NC(=O)C(CC(=O)O)NC(=O)C(N)CC(C)C)C(=O)NC(CC(C)C)C(=O)NC(C)C(=O)NC(Cc1ccc(O)cc1)C(=O)O (configuration not stated) (H-LDNGLILAY-OH; configuration not given here) ; wanted: its pEC50
< 4.30
